Below is a list of entries, each paired with its recorded EC50 value.
# Test System: hEP1 (Homo sapiens, UniProt P34995)
# Sequence (P34995 whole entry): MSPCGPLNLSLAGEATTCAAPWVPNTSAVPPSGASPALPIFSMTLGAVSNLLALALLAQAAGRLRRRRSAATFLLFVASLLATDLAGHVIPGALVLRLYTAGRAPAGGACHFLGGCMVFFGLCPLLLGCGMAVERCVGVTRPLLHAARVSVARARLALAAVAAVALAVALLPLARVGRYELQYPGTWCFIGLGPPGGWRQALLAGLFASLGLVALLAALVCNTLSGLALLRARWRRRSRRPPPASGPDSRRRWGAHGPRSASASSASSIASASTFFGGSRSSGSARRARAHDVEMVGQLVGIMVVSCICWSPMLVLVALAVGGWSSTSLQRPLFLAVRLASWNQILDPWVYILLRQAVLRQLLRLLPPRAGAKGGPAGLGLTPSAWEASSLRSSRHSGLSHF
# Assay Procedure: Other receptors: hEP1
# Assay type: cell-based
# Settings: the 3rd table; read-out: Other Receptors (ED50 in nM) hEP1
Readout Label: EC50 (nM)

INSERT INTO results (test_smiles, unit_abbrev, recorded_number) VALUES
  ('CCCc1cccc(OC[C@@H]2[C@@H](CCCc3ccc(C(=O)O)s3)[C@H](Cl)C[C@H]2O)c1', 'nM', 17900),
  ('CCc1cccc(OC[C@@H]2[C@@H](CCCc3ccc(C(=O)O)s3)[C@H](Cl)C[C@H]2O)c1', 'nM', 31500);

====

# Test System: hEP2 (Homo sapiens, UniProt P43116)
# Sequence (P43116 whole entry): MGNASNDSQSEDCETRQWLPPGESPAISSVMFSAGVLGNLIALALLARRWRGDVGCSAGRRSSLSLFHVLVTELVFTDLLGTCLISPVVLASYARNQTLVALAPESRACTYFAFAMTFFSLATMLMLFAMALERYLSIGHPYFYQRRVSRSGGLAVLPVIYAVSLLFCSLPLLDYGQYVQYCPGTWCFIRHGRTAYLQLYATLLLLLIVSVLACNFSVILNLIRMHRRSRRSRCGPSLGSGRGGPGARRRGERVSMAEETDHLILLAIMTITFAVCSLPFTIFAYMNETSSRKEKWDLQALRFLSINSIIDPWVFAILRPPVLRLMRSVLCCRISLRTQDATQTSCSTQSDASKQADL
# Assay Procedure: hEP2 flipr functional assay
# Type: cell-based
# Settings: the 2nd table; read-out: hEP2 flipr EC50
Readout Label: log10 of EC50 (log10 of the value in nM)

INSERT INTO measurements (molecule, recorded_number) VALUES
  ('O=C(O)c1ccc(CCC[C@@H]2[C@@H](COc3cc(Cl)cc(CO)c3)CC[C@H]2Cl)s1', 3.83),
  ('COCc1cc(Cl)cc(OC[C@@H]2[C@@H](C/C=C\CCCC(=O)O)[C@H](Cl)C[C@H]2O)c1', 3.53),
  ('O=C(O)c1ccc(CCC[C@H]2C(=O)CC[C@@H]2COc2cc(Cl)cc(CO)c2)s1', 2.47),
  ('O=C(O)c1ccc(CCC[C@@H]2[C@@H](COc3cc(Cl)cc(CO)c3)[C@H](O)C[C@H]2Cl)s1 [drawing 36]', 3.52),
  ('CC(=O)OCCc1cc(Cl)cc(OC[C@@H]2[C@@H](C/C=C\CCCC(=O)O)[C@H](Cl)C[C@H]2O)c1', 3.70),
  ('Cc1cc(C)cc(OC[C@@H]2[C@@H](CCCc3ccc(C(=O)O)s3)[C@H](Cl)C[C@H]2O)c1 [drawing 37]', 1.49),
  ('O=C(O)CCC/C=C\C[C@@H]1[C@@H](COc2cc(Cl)cc(CCO)c2)[C@H](O)C[C@H]1Cl', 2.81),
  ('O=C(O)c1ccc(CCC[C@@H]2[C@@H](COc3cc(Cl)cc(Cl)c3)[C@H](O)C[C@H]2F)s1', 1.92),
  ('N#C[C@@H]1C[C@@H](O)[C@H](COc2cc(Cl)cc(Cl)c2)[C@H]1CCCc1ccc(C(=O)O)s1 [drawing 40]', 1.18),
  ('O=C(O)c1ccc(CCC[C@@H]2[C@@H](COc3cc(Cl)cc(Cl)c3)[C@H](O)C[C@H]2Cl)s1 [drawing 35]', 3.85);

====

# Test System: UniProt:Q13258
# Sequence (Q13258 1-359): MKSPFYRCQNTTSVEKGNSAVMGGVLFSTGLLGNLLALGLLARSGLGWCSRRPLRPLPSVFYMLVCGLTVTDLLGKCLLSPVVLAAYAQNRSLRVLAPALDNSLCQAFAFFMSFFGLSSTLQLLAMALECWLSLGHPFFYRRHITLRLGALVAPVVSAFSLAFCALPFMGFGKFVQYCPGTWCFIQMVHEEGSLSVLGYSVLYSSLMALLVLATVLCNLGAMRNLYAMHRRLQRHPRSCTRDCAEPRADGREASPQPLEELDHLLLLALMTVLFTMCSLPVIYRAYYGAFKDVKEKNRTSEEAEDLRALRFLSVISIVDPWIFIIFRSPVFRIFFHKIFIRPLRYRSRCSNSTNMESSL
# Assay Procedure: Other receptors: hDP
# Assay type: cell-based
# Settings: the 3rd table; read-out: Other Receptors (ED50 in nM) hDP
Let's look at some molecules and their measured EC50.
Readout Label: EC50 (nM)

INSERT INTO assay_data (test_smiles, readout_label, recorded_number) VALUES
  ('O=C(O)c1ccc(CCC[C@@H]2[C@@H](COc3cccc4ccccc34)[C@H](O)C[C@H]2Cl)s1', 'EC50', 4150),
  ('O=C(O)c1ccc(CCC[C@@H]2[C@@H](COc3cccc4c3CCCC4)[C@H](O)C[C@H]2Cl)s1', 'EC50', 8620),
  ('CCc1cccc(OC[C@@H]2[C@@H](CCCc3ccc(C(=O)O)s3)[C@H](Cl)C[C@H]2O)c1', 'EC50', 4440),
  ('O=C(O)c1ccc(CCC[C@@H]2[C@@H](COc3cc(F)cc(F)c3)[C@H](O)C[C@H]2Cl)s1', 'EC50', 12100),
  ('O=C(O)c1ccc(CCC[C@@H]2[C@@H](COc3ccccc3)[C@H](O)C[C@H]2Cl)s1', 'EC50', 9090),
  ('O=C(O)c1ccc(CCC[C@@H]2[C@@H](COc3ccc(Cl)c4ccccc34)[C@H](O)C[C@H]2Cl)s1', 'EC50', 13500),
  ('Cc1cc(OC[C@@H]2[C@@H](CCCc3ccc(C(=O)O)s3)[C@H](Cl)C[C@H]2O)cc(C)c1Cl', 'EC50', 7190);

====

# Test System: hEP4 (Homo sapiens, UniProt P35408)
# Sequence (P35408 whole entry): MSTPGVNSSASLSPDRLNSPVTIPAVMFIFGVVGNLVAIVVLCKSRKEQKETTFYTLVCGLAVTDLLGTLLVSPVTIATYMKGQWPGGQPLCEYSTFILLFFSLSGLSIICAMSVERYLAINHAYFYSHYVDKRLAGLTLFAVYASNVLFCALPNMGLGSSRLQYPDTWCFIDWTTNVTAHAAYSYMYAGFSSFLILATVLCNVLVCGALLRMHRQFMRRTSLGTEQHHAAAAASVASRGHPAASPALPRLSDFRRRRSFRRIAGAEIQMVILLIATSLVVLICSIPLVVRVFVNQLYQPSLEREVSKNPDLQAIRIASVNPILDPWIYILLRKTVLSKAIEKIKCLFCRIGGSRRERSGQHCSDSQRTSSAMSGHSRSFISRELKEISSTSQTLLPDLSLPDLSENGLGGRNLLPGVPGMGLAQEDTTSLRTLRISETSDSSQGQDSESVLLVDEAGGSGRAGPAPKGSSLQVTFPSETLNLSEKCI
# Assay Procedure: hEP4 binding (Ki)
# Settings: the 3rd table; read-out: EP4 data KI
Readout Label: Ki (nM)

INSERT INTO results (test_smiles, readout_label, recorded_number) VALUES
  ('CCc1cccc(OC[C@@H]2[C@@H](CCCc3ccc(C(=O)O)s3)[C@H](Cl)C[C@H]2O)c1', 'Ki', 214),
  ('Cc1cc(OC[C@@H]2[C@@H](CCCc3ccc(C(=O)O)s3)[C@H](Cl)C[C@H]2O)cc(C)c1Cl', 'Ki', 170),
  ('O=C(O)c1ccc(CCC[C@@H]2[C@@H](COc3ccccc3)[C@H](O)C[C@H]2Cl)s1', 'Ki', 2320),
  ('CCCc1cccc(OC[C@@H]2[C@@H](CCCc3ccc(C(=O)O)s3)[C@H](Cl)C[C@H]2O)c1', 'Ki', 471),
  ('O=C(O)c1ccc(CCC[C@@H]2[C@@H](COc3cc(F)cc(F)c3)[C@H](O)C[C@H]2Cl)s1', 'Ki', 1280),
  ('O=C(O)c1ccc(CCC[C@@H]2[C@@H](COc3ccc(Cl)c4ccccc34)[C@H](O)C[C@H]2Cl)s1', 'Ki', 1930),
  ('CCc1cc(OC[C@@H]2[C@@H](CCCc3ccc(C(=O)O)s3)[C@H](Cl)C[C@H]2O)ccc1Cl', 'Ki', 177),
  ('O=C(O)c1ccc(CCC[C@@H]2[C@@H](COc3cccc4ccccc34)[C@H](O)C[C@H]2Cl)s1', 'Ki', 114);

====

# Test System: hEP4 (Homo sapiens)
# Assay Procedure: hEP4 binding (Ki)
# Settings: the 2nd table; read-out: hEP4 Ki
pKi: −log10 of the molar value.
Readout Label: pKi

INSERT INTO results (molecule, test_system, recorded_number) VALUES
  ('Cc1cc(C)cc(OC[C@@H]2[C@@H](CCCc3ccc(C(=O)O)s3)[C@H](Cl)C[C@H]2O)c1 [drawing 37]', 'hEP4 (Homo sapiens)', 6.80),
  ('COCc1cc(Cl)cc(OC[C@@H]2[C@@H](C/C=C\CCCC(=O)O)[C@H](Cl)C[C@H]2O)c1', 'hEP4 (Homo sapiens)', 5.84),
  ('O=C(O)c1ccc(CCC[C@@H]2[C@@H](COc3cc(Cl)cc(CO)c3)CC[C@H]2Cl)s1', 'hEP4 (Homo sapiens)', 6.71),
  ('O=C(O)c1ccc(CCC[C@H]2C(=O)CC[C@@H]2COc2cc(Cl)cc(CO)c2)s1', 'hEP4 (Homo sapiens)', 6.75),
  ('O=C(O)c1ccc(CCC[C@@H]2[C@@H](COc3cc(Cl)cc(Cl)c3)[C@H](O)C[C@H]2F)s1', 'hEP4 (Homo sapiens)', 6.51),
  ('O=C(O)c1ccc(CCC[C@@H]2[C@@H](COc3cc(Cl)cc(Cl)c3)[C@H](O)C[C@H]2Cl)s1 [drawing 35]', 'hEP4 (Homo sapiens)', 6.44),
  ('N#C[C@@H]1C[C@@H](O)[C@H](COc2cc(Cl)cc(Cl)c2)[C@H]1CCCc1ccc(C(=O)O)s1 [drawing 40]', 'hEP4 (Homo sapiens)', 6.83);

====

# Test System: hEP3 (Homo sapiens)
# Sequence (P43115 whole entry): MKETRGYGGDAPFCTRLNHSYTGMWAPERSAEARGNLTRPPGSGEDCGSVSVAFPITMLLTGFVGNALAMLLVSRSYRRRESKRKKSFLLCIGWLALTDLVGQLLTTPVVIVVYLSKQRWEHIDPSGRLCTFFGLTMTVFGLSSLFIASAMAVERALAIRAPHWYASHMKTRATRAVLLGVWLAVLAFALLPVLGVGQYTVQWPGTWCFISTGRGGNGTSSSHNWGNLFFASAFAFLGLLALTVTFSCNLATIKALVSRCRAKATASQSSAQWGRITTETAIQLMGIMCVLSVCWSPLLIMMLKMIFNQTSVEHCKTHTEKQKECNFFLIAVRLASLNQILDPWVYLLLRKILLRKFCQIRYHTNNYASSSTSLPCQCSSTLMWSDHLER
# Assay Procedure: Other receptors: hEP3 / hEP3A
# Assay type: cell-based
# Settings: the 2nd table; read-out: Other Receptors hEP3
pEC50: −log10 of the molar value.
Readout Label: pEC50

INSERT INTO assay_data (compound, readout_label, recorded_number) VALUES
  ('COCc1cc(Cl)cc(OC[C@@H]2[C@@H](C/C=C\CCCC(=O)O)[C@H](Cl)C[C@H]2O)c1', 'pEC50', 5.14),
  ('O=C(O)CCC/C=C\C[C@@H]1[C@@H](COc2cc(Cl)cc(CCO)c2)[C@H](O)C[C@H]1Cl', 'pEC50', 5.05),
  ('O=C(O)CCC/C=C\C[C@@H]1[C@@H](COc2cc(Cl)cc(Cl)c2)[C@H](O)C[C@H]1Cl [drawing 43]', 'pEC50', 5.90);
